biological target: human orexin-2 receptor (OX2R) (Homo sapiens); construct: expressed in transfected cells; host or cells: CHO cells (G418 selection); assay: In vitro orexin antagonism assay: intracellular calcium measurement (FLIPR), orexin-A 3 nM as agonist; assay type: cell-based; settings: read-out: OX2R, % Inh. @ 1 uM
Sequence (O43614 whole entry): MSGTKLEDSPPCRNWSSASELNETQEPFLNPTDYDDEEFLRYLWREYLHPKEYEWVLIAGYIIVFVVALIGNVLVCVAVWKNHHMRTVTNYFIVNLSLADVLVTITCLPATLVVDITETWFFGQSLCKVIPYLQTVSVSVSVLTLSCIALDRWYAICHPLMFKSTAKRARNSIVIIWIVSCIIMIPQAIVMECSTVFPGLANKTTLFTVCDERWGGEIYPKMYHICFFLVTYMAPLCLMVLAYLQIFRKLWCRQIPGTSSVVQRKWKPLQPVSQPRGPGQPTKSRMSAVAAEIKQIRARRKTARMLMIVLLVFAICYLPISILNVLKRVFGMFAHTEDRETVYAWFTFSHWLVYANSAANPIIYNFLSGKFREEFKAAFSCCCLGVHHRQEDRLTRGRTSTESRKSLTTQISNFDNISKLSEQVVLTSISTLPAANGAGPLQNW
Label satisfied when inhibition at 1 µM is at or above 10%; otherwise label not satisfied.

For orientation, consider the following solved cases.
CHEMICAL_SMILES	CATEGORY
O=C(c1c(-c2ccccc2)nc2cc(C(F)(F)F)ccn12)N1[C@H](Cn2ccc(-c3ccc(F)cc3)n2)C[C@@H]2C[C@@H]21	satisfied
O=C(c1nn2ccccc2c1-c1ccccc1)N1CCC[C@H]1Cn1ccc(-c2ccc(F)cn2)n1	satisfied
C[C@@]1(Cn2ccc(-c3ccccn3)n2)CCCN1C(=O)c1nn2ccccc2c1-c1ccccc1	satisfied
O=C(c1c(-c2ccccc2)nn2ccccc12)N1CCCC[C@H]1CNc1ccc(C(F)(F)F)cn1	satisfied
O=C(c1c(-c2ccccc2F)nn2ccccc12)N1CC[C@H]1Cn1ccc(-c2ccc(F)cc2)n1	satisfied
O=C(c1c(-c2ccccc2)nc2ccc(F)cn12)N1CCC[C@H]1Cn1ccc(-c2ccc(F)cc2)n1	satisfied
O=C(c1c(-c2ccccc2)nc2ncccn12)N1CCC[C@H]1COc1ccc(C(F)(F)F)cn1	not satisfied
O=C(c1c(-c2ccccc2)nc2ncccn12)N1CCC[C@H]1CNc1ccc(C(F)(F)F)cn1	not satisfied

Note: attention shifts to another entry.
Check the entry O=C(c1c(-c2ccccc2F)nn2c1COCC2)N1CCC[C@H]1Cn1ccc(-c2ccc(F)cn2)n1 : does inhibition at 1 µM equal or exceed 10%?
satisfied

----------
target: human k-opioid receptor (kOR) (Homo sapiens); construct: expressed in transfected cells; host or cells: RBL cells (membrane homogenates); experiment: Human k-opioid (KOP) receptor (agonist radioligand [3H]U-69593) binding assay, transfected RBL cell membranes; conditions: read-out: KOR % Inh. @ 1 uM
Sequence (P41145 whole entry): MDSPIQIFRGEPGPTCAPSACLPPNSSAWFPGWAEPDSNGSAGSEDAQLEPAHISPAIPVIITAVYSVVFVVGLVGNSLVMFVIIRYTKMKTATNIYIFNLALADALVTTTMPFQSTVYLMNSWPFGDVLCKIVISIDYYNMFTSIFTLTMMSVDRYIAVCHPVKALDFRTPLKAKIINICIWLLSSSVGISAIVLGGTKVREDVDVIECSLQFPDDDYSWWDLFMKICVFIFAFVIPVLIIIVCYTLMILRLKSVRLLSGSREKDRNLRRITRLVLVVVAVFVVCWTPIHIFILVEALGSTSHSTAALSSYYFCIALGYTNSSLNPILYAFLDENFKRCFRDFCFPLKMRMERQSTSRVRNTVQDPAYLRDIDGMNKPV
Recorded inhibition at 1 µM values for a group of molecules are listed next.
Lab book: enter the figure in %, no units written.

# example entries with known answers
CHEMICAL_SMILES	TARGET_OF_ASSAY	inhibition at 1 µM / %
C[C@@]1(COc2ccc(C(F)(F)F)cn2)CCCN1C(=O)c1c(-c2ccccc2)nn2ccccc12	human k-opioid receptor (kOR) (Homo sapiens)	7
C[C@@]1(COc2ccc(C(F)(F)F)cn2)CCCN1C(=O)c1nn2c(c1-c1ccccc1)COCC2	human k-opioid receptor (kOR) (Homo sapiens)	12
O=C(c1c(-c2ccccc2)nn2c1COCC2)N1CCCC[C@H]1COc1ccc(C(F)(F)F)cn1	human k-opioid receptor (kOR) (Homo sapiens)	38
C[C@@]1(COc2ccc(C(F)(F)F)cn2)CCCN1C(=O)c1c(-c2ncccn2)nn2ccccc12	human k-opioid receptor (kOR) (Homo sapiens)	8
O=C(c1nn2c(c1-c1ccccc1)COCC2)N1CCC[C@H]1COc1ccc(C(F)(F)F)cn1	human k-opioid receptor (kOR) (Homo sapiens)	40

Endpoint output: inhibition at 1 µM of O=C(c1c(-c2ccccc2F)nn2ccccc12)N1CCC[C@H]1Cn1ccc(-c2ccccn2)n1 . Value?
27

Which inhibition at 1 µM is listed for [2H]C1([2H])CC[C@@]([2H])(Cn2ccc(-c3ccc(F)cc3)n2)N1C(=O)c1c(-c2ccccc2)nc2ccc(F)cn12 ?
91

----------
molecular target: Orexin type 1 (OX1R) receptor (Homo sapiens, UniProt O43613); construct: expressed in transfected cells; host or cells: CHO cells (G418 selection); test: In vitro orexin antagonism assay: intracellular calcium measurement (FLIPR), orexin-A 3 nM as agonist; format: cell-based; conditions: read-out: OX1R, % Inh. @ 1 uM
Sequence (O43613 whole entry): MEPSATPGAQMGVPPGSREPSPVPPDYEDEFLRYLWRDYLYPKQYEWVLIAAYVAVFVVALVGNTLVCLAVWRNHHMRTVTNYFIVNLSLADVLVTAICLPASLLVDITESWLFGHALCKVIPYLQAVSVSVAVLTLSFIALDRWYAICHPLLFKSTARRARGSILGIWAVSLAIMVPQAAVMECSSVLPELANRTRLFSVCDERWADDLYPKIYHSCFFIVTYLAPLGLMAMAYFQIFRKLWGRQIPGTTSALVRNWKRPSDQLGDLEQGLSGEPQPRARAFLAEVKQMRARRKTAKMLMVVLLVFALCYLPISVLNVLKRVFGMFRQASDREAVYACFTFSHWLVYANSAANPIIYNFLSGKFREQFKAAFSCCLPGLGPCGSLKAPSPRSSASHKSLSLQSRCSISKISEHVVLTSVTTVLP
TEST_READOUT: inhibition at 1 µM (%)
A number alone suffices; assume %.

// known answers, use as guide
CHEMICAL_SMILES	inhibition at 1 µM [%]
C[C@@H]1CCCN(C(=O)c2c(-c3ccccc3)nc3ccccn23)[C@@H]1CNc1ccc(C(F)(F)F)cn1	100
O=C(c1c(-c2ccc(F)cc2)nn2ccccc12)N1CCC[C@H]1CNc1ccc(F)cn1	45.6
O=C(c1nc2n(c1-c1ccccn1)CCOC2)N1CCC[C@H]1Cn1ccc(-c2ccccn2)n1	64
O=C(c1nc2ccccn2c1-c1ccccc1)N1CCC[C@H]1Cn1cc(-c2ccc(F)cn2)cn1	99

Data request, read-out inhibition at 1 µM, for C[C@@]1(COc2cnc(C(F)(F)F)cn2)CCCN1C(=O)c1c(-c2ccccc2)nn2c1COCC2
2

----------
biological target: Orexin type 1 (OX1R) receptor (Homo sapiens, UniProt O43613); construct: expressed in transfected cells; host or cells: CHO cells (G418 selection); experiment: In vitro orexin antagonism assay: intracellular calcium measurement (FLIPR), orexin-A 3 nM as agonist; type: cell-based; conditions: second value of IC50/Kb cell
Just a reminder that ties go to no: only Kb strictly below 6 nM counts as yes.

COMPOUND	CATEGORY
O=C(c1nc2ccccn2c1-c1ccccc1)N1CCC[C@H]1COc1ccc(C(F)(F)F)cn1 [Example 124]	yes
O=C(c1nn2c(c1-c1ccccn1)OCCC2)N1[C@H](Cn2ccc(-c3ccc(F)cn3)n2)C[C@@H]2C[C@@H]21 [Example 202]	no
O=C(c1c(-c2ccccc2)nn2ccccc12)N1CCCC[C@H]1COc1ccc(C(F)(F)F)cn1 [Example 24]	yes
O=C(c1nc2ccccn2c1-c1ccccn1)N1CCC[C@H]1Cn1cc(-c2ccccn2)cn1 [Example 181]	no
O=C(c1c(-c2ccccc2F)nn2ccccc12)N1CC[C@H]1Cn1ccc(-c2ccc(F)cc2)n1 [Example 99]	no
O=C(c1c(-c2ccccc2)nc2ccccn12)N1CCCC[C@H]1CNc1ccc(C(F)(F)F)cn1 [Example 26]	yes
O=C(c1nn2c(c1-c1ccccn1)OCCC2)N1CCC[C@H]1COc1ccc(C(F)(F)F)cn1 [Example 201]	yes
O=C(c1c(-c2ccccc2)nc2cc(C(F)(F)F)ccn12)N1CCC[C@H]1Cn1cc(-c2ccc(F)cn2)cn1 [Example 81]	no
O=C(c1c(-c2ccc(F)cc2)nn2ccccc12)N1CCC[C@H]1COc1ccc(C(F)(F)F)cn1 [Example 43]	yes
O=C(c1nn2c(c1-c1ccccc1)COCC2)N1C2CCC1(COc1ccc(C(F)(F)F)cn1)CC2 [Example 159]	no

From here, focus on the item given below.
Hello, is Kb of the following compound strictly smaller than 6 nM? C[C@@]1(COc2ccc(C(F)(F)F)cn2)CCCN1C(=O)c1c(-c2ccccn2)nn2ccccc12 [Example 147]
no

----------
Quick reference for IC50 among some compounds
target: Orexin type 1 (OX1R) receptor (Homo sapiens, UniProt O43613); test: In vitro orexin antagonism assay: intracellular calcium measurement (FLIPR), orexin-A 3 nM as agonist; details: first value of IC50/Kb cell
Record the result as number plus unit.

Known results for compounds:
CHEMICAL_SMILES	IC50
O=C(c1nn2cccnc2c1-c1ccccc1)N1CCC[C@H]1Cn1ccc(-c2ccccn2)n1	0.005 µM
O=C(c1nn2ccccc2c1-c1ccccn1)N1CCC[C@H]1Cn1cc(-c2ccccn2)cn1	0.008 µM
C[C@@]1(COc2ccc(C(F)(F)F)cn2)CCCN1C(=O)c1nn2c(c1-c1ccccc1)COCC2	0.27 µM
O=C(c1nn2cccnc2c1-c1ccccn1)N1CCC[C@H]1Cn1ccc(-c2ccc(F)cn2)n1	0.016 µM

Find IC50 (Orexin type 1 (OX1R) receptor (Homo sapiens, UniProt O43613)) for the entry O=C(c1c(-c2ccc(F)cc2)nn2c1COCC2)N1CCC[C@H]1Cn1ccc(-c2ccc(F)cc2)n1
0.122 µM

Request body: readout IC50, system Orexin type 1 (OX1R) receptor (Homo sapiens, UniProt O43613), query O=C(c1c(-c2ccccc2)nc2cc(C(F)(F)F)ccn12)N1CCC[C@H]1Cn1ccc(-c2ccc(F)cc2)n1 . Return the value.
0.021 µM

So what IC50 did O=C(c1nn2c(c1-c1ccccn1)OCCC2)N1CCC[C@H]1Cn1cc(-c2ccccn2)cn1 get with Orexin type 1 (OX1R) receptor (Homo sapiens, UniProt O43613)?
0.031 µM

Find the measured IC50: item C[C@@]1(COc2cnc(C(F)(F)F)cn2)CCCN1C(=O)c1c(-c2ccccc2)nn2cccnc12 , target or system Orexin type 1 (OX1R) receptor (Homo sapiens, UniProt O43613).
0.475 µM

Notebook entry, Orexin type 1 (OX1R) receptor (Homo sapiens, UniProt O43613) assay: IC50 of O=C(c1c(-c2ccccc2)nn2ccccc12)N1CCC[C@H]1CNc1ccc(C(F)(F)F)cn1 = ?
0.004 µM

For Orexin type 1 (OX1R) receptor (Homo sapiens, UniProt O43613), provide IC50 of O=C(c1c(-c2ccc(F)cc2)nn2ccccc12)N1CCC[C@H]1Cn1ccc(-c2ccc(F)cc2)n1 please.
0.005 µM

Request - read-out IC50 | tested on Orexin type 1 (OX1R) receptor (Homo sapiens, UniProt O43613) | compound O=C(c1c(-c2ccccc2)nc2cc(C(F)(F)F)ccn12)N1CCC[C@H]1Cn1cc(-c2ccccc2)cn1
0.19 µM

Record lookup: for Orexin type 1 (OX1R) receptor (Homo sapiens, UniProt O43613), what IC50 belongs to O=C(c1c(-c2ccccc2)nc2ccc(F)cn12)N1CCC[C@H]1Cn1ccc(-c2ccc(F)cn2)n1 ?
0.25 µM

Query the reported IC50 for Orexin type 1 (OX1R) receptor (Homo sapiens, UniProt O43613); item: O=C(c1c(-c2ccccc2)nn2ccccc12)N1CCC[C@H]1Cc1nc(-c2ccc(F)cn2)no1
0.046 µM
